Observed pKi for D(1A) dopamine receptor (Bos taurus), reported per entry below.
pKi field: float, defined as -log10 of concentration (mol/L).

Answered cases to consult:
O=C(CCCN1CCC(O)(c2ccc(Cl)c(C(F)(F)F)c2)CC1)c1ccc(F)cc1 [CAS_10457-91-7]
6.44
CC(C)[C@H]1C(=O)N2CCC[C@H]2[C@]2(O)O[C@](NC(=O)[C@@H]3C=C4c5cccc6[nH]cc(c56)C[C@H]4N(C)C3)(C(C)C)C(=O)N12 [ERGOCORNINE]
7.44
OCCN1CCN(CC/C=C2/c3ccccc3Sc3ccc(Cl)cc32)CC1
6.32
NC1CCc2cc(O)c(O)cc2C1 (stereo not drawn)
7.96

Dear colleague, I am looking for the recorded pKi of the following compound: CN1CCC(=C2c3ccccc3C=Cc3ccccc32)CC1
5.92

Further, for OC1(c2ccc(Cl)c(C(F)(F)F)c2)CCN(CCCC(c2ccc(F)cc2)c2ccc(F)cc2)CC1 [Penfluridol] ?
5.80

Further, for CC(C)[C@@]1(NC(=O)[C@@H]2C=C3c4cccc5[nH]cc(c45)C[C@H]3N(C)C2)O[C@@]2(O)[C@@H]3CCCN3C(=O)[C@H](Cc3ccccc3)N2C1=O [SMR000058447] ?
7.28
